// data source = the supplement of paper PMC7877785

- experimental_details: self-splicing fitness, log relative to wild type (ln ratio); higher = more splicing; Tetrahymena group I intron in knt gene, E. coli kanamycin selection, DiMSum; sequences stand for … in CUCUCU…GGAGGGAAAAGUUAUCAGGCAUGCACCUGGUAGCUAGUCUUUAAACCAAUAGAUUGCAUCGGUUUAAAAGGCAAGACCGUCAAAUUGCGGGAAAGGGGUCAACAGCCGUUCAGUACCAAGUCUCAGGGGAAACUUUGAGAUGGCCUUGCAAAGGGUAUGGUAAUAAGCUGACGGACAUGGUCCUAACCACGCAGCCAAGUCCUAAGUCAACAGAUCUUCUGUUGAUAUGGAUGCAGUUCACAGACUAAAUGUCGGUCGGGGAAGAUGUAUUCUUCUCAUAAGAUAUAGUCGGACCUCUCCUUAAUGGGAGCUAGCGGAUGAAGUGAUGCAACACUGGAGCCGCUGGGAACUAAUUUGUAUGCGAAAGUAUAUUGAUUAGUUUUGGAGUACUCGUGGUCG;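 also: selection with 25 µg/mL kanamycin versus none on LB agar overnight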
- experimental_conditions: 30 °C
yes means recorded self-splicing fitness (ln) is -2 or above; no means it is below -2.

## Task Would you say `ACGAAGCAAUAUUACGAAGA` shows self-splicing fitness (ln) at minimum -2?
## Result no

## Task Would you say `AGGCAGCAAUAUUACGAAAG` shows self-splicing fitness (ln) at minimum -2?
## Result no

## Task Would you say `UUACAGCAAUAUUACGGUGG` shows self-splicing fitness (ln) at minimum -2?
## Result yes

## Task Would you say `CGCUAGCAAUAUUACGCGGA` shows self-splicing fitness (ln) at minimum -2?
## Result no

## Task Would you say `CAGCAGCAAUAUUACGGAAA` shows self-splicing fitness (ln) at minimum -2?
## Result no

## Task Would you say `AGUCAGCAAUAUUACGACUU` shows self-splicing fitness (ln) at minimum -2?
## Result no

## Task Would you say `CCAGAGCAAUAUUACGCCAC` shows self-splicing fitness (ln) at minimum -2?
## Result no

## Task Would you say `AUGAAGCAAUAUUACGUUUA` shows self-splicing fitness (ln) at minimum -2?
## Result yes

## Task Would you say `CACUAGCAAUAUUACGUAUC` shows self-splicing fitness (ln) at minimum -2?
## Result no

## Task Would you say `UCGCAGCAAUAUUACGUAGA` shows self-splicing fitness (ln) at minimum -2?
## Result yes

## Task Would you say `CUCAAGCAAUAUUACGCGAG` shows self-splicing fitness (ln) at minimum -2?
## Result no

## Task Would you say `CUCCAGCAAUAUUACGGUGG` shows self-splicing fitness (ln) at minimum -2?
## Result no

## Task Would you say `AAUUAGCAAUAUUACGCCGG` shows self-splicing fitness (ln) at minimum -2?
## Result no

## Task Would you say `CCAAAGCAAUAUUACGCUCA` shows self-splicing fitness (ln) at minimum -2?
## Result no

## Task Would you say `AACCAGCAAUAUUACGUUCG` shows self-splicing fitness (ln) at minimum -2?
## Result no

## Task Would you say `AUCCAGCAAUAUUACGACAA` shows self-splicing fitness (ln) at minimum -2?
## Result yes

## Task Would you say `ACUCAGCAAUAUUACGCUAC` shows self-splicing fitness (ln) at minimum -2?
## Result no

## Task Would you say `CCUGAGCAAUAUUACGUGGG` shows self-splicing fitness (ln) at minimum -2?
## Result no

## Task Would you say `UUCAAGCAAUAUUACGUCGU` shows self-splicing fitness (ln) at minimum -2?
## Result no

## Task Would you say `UGGUAGCAAUAUUACGGUAA` shows self-splicing fitness (ln) at minimum -2?
## Result yes

## Task Would you say `CCAGAGCAAUAUUACGGCUU` shows self-splicing fitness (ln) at minimum -2?
## Result no

## Task Would you say `CGGCAGCAAUAUUACGUACG` shows self-splicing fitness (ln) at minimum -2?
## Result no

## Task Would you say `AGAUAGCAAUAUUACGCGGC` shows self-splicing fitness (ln) at minimum -2?
## Result no

## Task Would you say `GCUCAGCAAUAUUACGCGCU` shows self-splicing fitness (ln) at minimum -2?
## Result yes

## Task Would you say `AAGUAGCAAUAUUACGAUCC` shows self-splicing fitness (ln) at minimum -2?
## Result yes

## Task Would you say `AUCCAGCAAUAUUACGGGUA` shows self-splicing fitness (ln) at minimum -2?
## Result yes

## Task Would you say `CCACAGCAAUAUUACGCGUG` shows self-splicing fitness (ln) at minimum -2?
## Result no

## Task Would you say `GCUCAGCAAUAUUACGACCC` shows self-splicing fitness (ln) at minimum -2?
## Result yes

## Task Would you say `UCCGAGCAAUAUUACGGGCA` shows self-splicing fitness (ln) at minimum -2?
## Result yes

## Task Would you say `CUUCAGCAAUAUUACGGAGA` shows self-splicing fitness (ln) at minimum -2?
## Result no

## Task Would you say `GUUGAGCAAUAUUACGUGAU` shows self-splicing fitness (ln) at minimum -2?
## Result no

## Task Would you say `GUUGAGCAAUAUUACGAAAU` shows self-splicing fitness (ln) at minimum -2?
## Result no

## Task Would you say `CAACAGCAAUAUUACGCGGC` shows self-splicing fitness (ln) at minimum -2?
## Result no

## Task Would you say `UAGGAGCAAUAUUACGGUCU` shows self-splicing fitness (ln) at minimum -2?
## Result yes

## Task Would you say `GCUUAGCAAUAUUACGAGAG` shows self-splicing fitness (ln) at minimum -2?
## Result yes

## Task Would you say `CAGAAGCAAUAUUACGCUUU` shows self-splicing fitness (ln) at minimum -2?
## Result no

## Task Would you say `AUUUAGCAAUAUUACGCCCG` shows self-splicing fitness (ln) at minimum -2?
## Result yes

## Task Would you say `ACUUAGCAAUAUUACGUUAG` shows self-splicing fitness (ln) at minimum -2?
## Result no

## Task Would you say `GCCCAGCAAUAUUACGAUGG` shows self-splicing fitness (ln) at minimum -2?
## Result no

## Task Would you say `AUAGAGCAAUAUUACGAAUC` shows self-splicing fitness (ln) at minimum -2?
## Result no

## Task Would you say `GCAAAGCAAUAUUACGCGGG` shows self-splicing fitness (ln) at minimum -2?
## Result no

## Task Would you say `AGAAAGCAAUAUUACGCUGA` shows self-splicing fitness (ln) at minimum -2?
## Result no

## Task Would you say `UUACAGCAAUAUUACGCGGU` shows self-splicing fitness (ln) at minimum -2?
## Result no

## Task Would you say `AUAUAGCAAUAUUACGGGUG` shows self-splicing fitness (ln) at minimum -2?
## Result yes
